Hey, just so you know, these numbers are from ChEMBL document CHEMBL1130148.

Consider the following compounds; for each one, report its pIC50.
# target: Acetylcholinesterase (Bos taurus)
# Sequence (P23795 whole entry): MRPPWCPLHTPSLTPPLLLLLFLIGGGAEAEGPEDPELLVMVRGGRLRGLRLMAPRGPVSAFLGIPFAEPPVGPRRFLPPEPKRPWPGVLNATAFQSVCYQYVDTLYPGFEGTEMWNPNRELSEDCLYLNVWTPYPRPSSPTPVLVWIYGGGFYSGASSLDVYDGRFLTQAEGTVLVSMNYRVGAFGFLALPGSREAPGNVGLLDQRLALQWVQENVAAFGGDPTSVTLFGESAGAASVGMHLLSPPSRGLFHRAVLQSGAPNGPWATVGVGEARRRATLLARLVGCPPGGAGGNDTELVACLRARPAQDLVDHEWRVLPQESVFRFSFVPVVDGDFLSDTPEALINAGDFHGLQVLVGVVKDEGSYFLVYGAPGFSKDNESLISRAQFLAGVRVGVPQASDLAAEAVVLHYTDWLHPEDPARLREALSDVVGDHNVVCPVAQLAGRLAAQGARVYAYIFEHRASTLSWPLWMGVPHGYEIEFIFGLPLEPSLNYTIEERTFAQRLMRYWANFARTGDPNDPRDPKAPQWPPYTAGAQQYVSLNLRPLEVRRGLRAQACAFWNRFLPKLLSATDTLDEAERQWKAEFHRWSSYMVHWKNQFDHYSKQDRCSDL
# protocol text: Inhibition of Acetylcholinesterase activity of calf forebrain
One number for each entry, as −log10 of the molar value.

Below: 4 compounds and their reported pIC50.
CCN(CC)CCNC(=O)c1ccc(N)cc1 [PROCAINAMIDE]
6.30
C[N+](C)(C)CCOC(=O)Sc1ccccc1.[Cl-]
4.00
CC(C)CCSC(=O)OCC[N+](C)(C)C
5.00
CCC(C)CSC(=O)OCC[N+](C)(C)C.[Cl-] (stereo unspecified)
3.10

Pending compound:
Please fill in: pIC50 reported for `CCC(C)(C)SC(=O)OCC[N+](C)(C)C.[Cl-]` = 5.00
